Value source: patent US20250345446A1

- Assay system: T1, Sortilin-6His (Homo sapiens (Human), UniProt Q99523 78-755)
- T1 construct: In MST it was labelled non-covalently with RED-tris-NTA; also called soluble ectodomain of sortilin-6his; fluorescent sortilin-6his
- T1 sequence (Q99523 78-755 V650M limits assumed): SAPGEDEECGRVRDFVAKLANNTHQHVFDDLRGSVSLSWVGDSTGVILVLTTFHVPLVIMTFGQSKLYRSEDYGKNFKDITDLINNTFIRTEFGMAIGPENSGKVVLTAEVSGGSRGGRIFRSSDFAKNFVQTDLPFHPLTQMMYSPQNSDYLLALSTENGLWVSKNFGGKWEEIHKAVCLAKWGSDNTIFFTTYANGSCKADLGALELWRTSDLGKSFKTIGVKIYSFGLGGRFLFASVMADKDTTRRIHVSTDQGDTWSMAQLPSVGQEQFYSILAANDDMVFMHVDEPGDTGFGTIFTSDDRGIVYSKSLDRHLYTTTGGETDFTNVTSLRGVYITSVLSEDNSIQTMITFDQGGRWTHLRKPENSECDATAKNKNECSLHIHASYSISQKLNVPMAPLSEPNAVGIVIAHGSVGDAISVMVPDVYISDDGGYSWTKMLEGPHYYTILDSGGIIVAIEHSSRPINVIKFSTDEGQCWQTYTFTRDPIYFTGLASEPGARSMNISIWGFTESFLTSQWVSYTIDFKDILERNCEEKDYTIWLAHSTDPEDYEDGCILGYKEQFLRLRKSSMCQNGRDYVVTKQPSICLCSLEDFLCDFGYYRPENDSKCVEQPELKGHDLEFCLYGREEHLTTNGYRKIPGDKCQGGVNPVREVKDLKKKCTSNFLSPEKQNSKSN
- Measurement description: TR-FRET (HTRF) ternary complex streptavidin-d2 / biotin-peptide / sortilin-6His; AUC score: + <5000, ++ >5000
*: point of attachment. Biotin = O=C1N[C@H]2[C@H](CS[C@H]2CCCCC(=O)*)N1
Catalogue of binders with associated AUC of TR-FRET (HTRF ratio vs compound concentration) for ternary complex formation
Assay endpoint: AUC of TR-FRET (HTRF ratio vs compound concentration) for ternary complex formation

- Biotin-GGSGGGGSGGGGSGGFQLL-OH (SMILES CC(C)C[C@H](NC(=O)[C@H](CC(C)C)NC(=O)[C@H](CCC(N)=O)NC(=O)[C@H](Cc1ccccc1)NC(=O)CNC(=O)CNC(=O)[C@H](CO)NC(=O)CNC(=O)CNC(=O)CNC(=O)CNC(=O)[C@H](CO)NC(=O)CNC(=O)CNC(=O)CNC(=O)CNC(=O)[C@H](CO)NC(=O)CNC(=O)CNC(=O)CCCC[C@@H]1SC[C@@H]2NC(=O)N[C@@H]21)C(=O)O) [Biotin-GGSGGGGSGGGGSGGFQLL-OH]: > 5000 auc
- Biotin-GGSGGGGSGGGGSRQLL-OH (SMILES CC(C)C[C@H](NC(=O)[C@H](CC(C)C)NC(=O)[C@H](CCC(N)=O)NC(=O)[C@H](CCCNC(=N)N)NC(=O)[C@H](CO)NC(=O)CNC(=O)CNC(=O)CNC(=O)CNC(=O)[C@H](CO)NC(=O)CNC(=O)CNC(=O)CNC(=O)CNC(=O)[C@H](CO)NC(=O)CNC(=O)CNC(=O)CCCC[C@@H]1SC[C@@H]2NC(=O)N[C@@H]21)C(=O)O) [Biotin-GGSGGGGSGGGGSRQLL-OH]: < 5000 auc
- Biotin-GGSGGGGSGRQLL-OH (SMILES CC(C)C[C@H](NC(=O)[C@H](CC(C)C)NC(=O)[C@H](CCC(N)=O)NC(=O)[C@H](CCCNC(=N)N)NC(=O)CNC(=O)[C@H](CO)NC(=O)CNC(=O)CNC(=O)CNC(=O)CNC(=O)[C@H](CO)NC(=O)CNC(=O)CNC(=O)CCCC[C@@H]1SC[C@@H]2NC(=O)N[C@@H]21)C(=O)O) [Biotin-GGSGGGGSGRQLL-OH]: < 5000 auc
- Biotin-GGSGGGGSGGGGSFQLL-OH (SMILES CC(C)C[C@H](NC(=O)[C@H](CC(C)C)NC(=O)[C@H](CCC(N)=O)NC(=O)[C@H](Cc1ccccc1)NC(=O)[C@H](CO)NC(=O)CNC(=O)CNC(=O)CNC(=O)CNC(=O)[C@H](CO)NC(=O)CNC(=O)CNC(=O)CNC(=O)CNC(=O)[C@H](CO)NC(=O)CNC(=O)CNC(=O)CCCC[C@@H]1SC[C@@H]2NC(=O)N[C@@H]21)C(=O)O) [Biotin-GGSGGGGSGGGGSFQLL-OH]: > 5000 auc
- Biotin-GGSGGGGSGGGRQLL-OH (SMILES CC(C)C[C@H](NC(=O)[C@H](CC(C)C)NC(=O)[C@H](CCC(N)=O)NC(=O)[C@H](CCCNC(=N)N)NC(=O)CNC(=O)CNC(=O)CNC(=O)[C@H](CO)NC(=O)CNC(=O)CNC(=O)CNC(=O)CNC(=O)[C@H](CO)NC(=O)CNC(=O)CNC(=O)CCCC[C@@H]1SC[C@@H]2NC(=O)N[C@@H]21)C(=O)O) [Biotin-GGSGGGGSGGGRQLL-OH]: < 5000 auc
- Biotin-GGSGGGGSGGGFQLL-OH (SMILES CC(C)C[C@H](NC(=O)[C@H](CC(C)C)NC(=O)[C@H](CCC(N)=O)NC(=O)[C@H](Cc1ccccc1)NC(=O)CNC(=O)CNC(=O)CNC(=O)[C@H](CO)NC(=O)CNC(=O)CNC(=O)CNC(=O)CNC(=O)[C@H](CO)NC(=O)CNC(=O)CNC(=O)CCCC[C@@H]1SC[C@@H]2NC(=O)N[C@@H]21)C(=O)O) [Biotin-GGSGGGGSGGGFQLL-OH]: > 5000 auc
